- Test system: CAKI-1
- PROTOCOL_SUMMARY: NCI tumour cell line growth inhibition, 48 h
Activity calls are given as the source filed them. Rule as the data show it: active = GI50 up to about 1.1 µM and inactive = higher.
PARAMETER_MEASURED: GI50

Here are 6 compounds together with their reported answers.
COMPOUND	PARAMETER_MEASURED	READING
O=[N+]([O-])C(=C/C1CCCCC1)/C(=C\C1CCCCC1)[N+](=O)[O-]	GI50	3.85 µM (inactive)
COC(=O)NCCc1n[nH]c2c1C(=O)C=C(N1CCOCC1)C2=O	GI50	> 100 µM (inactive)
CC(=O)NC1C(OCc2ccccc2)OC(CO)C(O)C1OCC(=O)N[C@@H](C)C(=O)N[C@H](CCC(=O)NCCNc1ccc([N+](=O)[O-])c2[nH]c3ccccc3c(=O)c12)C(N)=O (some centres not stated)	GI50	29.9 µM (inactive)
CC(CO)CCNc1ncnc2c1ncn2CCC(=O)OC(C)(C)C (configuration not stated)	GI50	> 100 µM (inactive)
Cc1nc2c(nc1C)-c1c(c3c(n1Cc1ccccc1)C(=O)CCC3)C(=O)C2=O	GI50	2.15 µM (inactive)
CC1(C)CCCCCC(C)(CCCO)C1=O (configuration not stated)	GI50	> 100 µM (inactive)

Exercise: What value of GI50 has been reported for the following compound? NC(=O)Nc1c([N+](=O)[O-])cc(C(F)(F)F)cc1[N+](=O)[O-]
Key: > 100 µM (inactive)

----------
Each item that follows carries a reported GI50.
- Test system: NCI-H23
- PROTOCOL_SUMMARY: NCI tumour cell line growth inhibition, 48 h
The source made the active and inactive calls. Cut-off read from the data, not from the text of the source: active = GI50 up to about 1.1 µM and inactive = higher.

MOLECULE	TESTED_SYSTEM	READING
CC[P+]1(c2ccccc2)CCCCC1	NCI-H23	> 100 µM (inactive)

Exercise: Entry under review: NC(Cc1ccc(OCc2ccccc2)cn1)C(=O)O (stereo not given) . Reported GI50?
Key: > 100 µM (inactive)

Exercise: What value of measured GI50 is listed for CN(C)CC1CCC/C(=C\c2ccc(N(C)C)cc2)C1=O (stereo not given) ?
Key: 15.1 µM (inactive)

Exercise: What value of GI50 has been reported for the following molecule? CC(C)(C)[C@H]1CO[C@]2(C)[C@@H]3C[C@@H]3C(=O)N12
Key: > 100 µM (inactive)

Exercise: May I ask what GI50 has been recorded for N#CC(C#N)=Cc1ccc(CP(=O)(O)O)cc1 ?
Key: > 100 µM (inactive)

----------
- Test system: MDA-MB-231
- PROTOCOL_SUMMARY: NCI tumour cell line growth inhibition, 48 h
The source made the active and inactive calls. Rule as the data show it: active = GI50 up to about 1.1 µM and inactive = higher.
In this section we review reported GI50 values for a set of compounds.

Example entries begin here.
COMPOUND	READING
CN(Cc1cnc2nc(N)nc(N)c2n1)c1ccc(C(=O)NC(CCC(=O)NCC(P(=O)(O)O)P(=O)(O)O)C(=O)O)cc1 (stereo not given)	> 100 µM (inactive)
N#CS/C(Cl)=C(/C(Cl)=C(Cl)Cl)[N+](=O)[O-]	52.5 µM (inactive)
CC[C@H](C)C1=C(OC(C)=O)[N@+]2([O-])Oc3ccc(-c4c(O)c(O)c(-c5ccc(OC(C)=O)cc5)c(OC(C)=O)c4OC(C)=O)cc3O[C@]2([C@@H](C)CC)C(=O)N1O	17.8 µM (inactive)

Exercise: Item under review: CC(C)=Cc1cc2c(cc1O)CCC1C2CC[C@@]2(C)C1CC[C@@H]2O (stereo not given in full) . Reported GI50?
Key: 16.3 µM (inactive)

Exercise: What GI50 value was documented for this compound, O=C1CCCSCCCC(=O)CCCSCCC1 ?
Key: > 100 µM (inactive)
